Assignment: determine reported GI50 for the given compounds.
Tested on: A549 NSCLC
Test: NCI tumour cell line growth inhibition, 48 h

Exercise: Looking for the measured GI50 of "Cn1ncc2c(Sc3ccc(Cl)cc3)ncnc21" , can you help?
Solution: 18.8 µM

Exercise: Looking for the measured GI50 of "Cc1cccc2c(C(=O)O[C@H](C(N)=O)[C@]3(C)CO3)cccc12" , can you help?
Solution: 3.66 µM

Exercise: Looking for the measured GI50 of "CC(C)(C)c1ccc(C(=O)Nc2sc3c(c2C#N)CCC(=O)C3)cc1" , can you help?
Solution: 0.98 µM

Exercise: Looking for the measured GI50 of "N#Cc1c(-c2ccccc2)cc(-c2ccccc2)n(CC(=O)NO)c1=O" , can you help?
Solution: 4.57 µM

Exercise: Looking for the measured GI50 of CCCCCCCCc1ccc(OCCOCC[N+](C)(C)CC)cc1 (tested in a mixture with another compound) , can you help?
Solution: 9.99 µM

Exercise: Looking for the measured GI50 of "Cc1cc2c([nH]1)CSc1cc(S(=O)(=O)c3ccccc3)c(=O)[nH]c1-2" , can you help?
Solution: 43.8 µM

Exercise: Looking for the measured GI50 of "O=C(NCCCCNC(=O)OCc1ccc2c(Cl)cc(Cl)c(O)c2n1)OCc1ccc2c(Cl)cc(Cl)c(O)c2n1" , can you help?
Solution: 6.33 µM

Exercise: Looking for the measured GI50 of "C=C1C(=O)O[C@H]2[C@H]1CC/C(COC(=O)CCCCCCC(=O)OC/C1=C/CC[C@@]3(C)O[C@H]3[C@H]3OC(=O)C(=C)[C@@H]3CC1)=C\CC[C@@]1(C)O[C@@H]21" , can you help?
Solution: 16.9 µM

Exercise: Looking for the measured GI50 of "COc1ccc(/C=C/c2nnc(/C=C/c3ccc(OC)c(OC)c3)o2)cc1OC" , can you help?
Solution: 4.84 µM
